Item-by-item account of half-life
ASSAY_INFO: Half life by HPLC methods that permitted quantitative resolution of the decrease of TP-5 and the appearance of degradation products by absorbance in EDTA-treated mouse serum
Type: ADME, organism-based
REPORTED_ENDPOINT: half-life

* CC(C)[C@H](NC(=O)[C@H](CC(=O)O)NC(=O)[C@H](CCCCN)NC(=O)[C@@H](N)CCCN=C(N)N)C(=O)C[C@H](Cc1ccccc1)C(=O)O (stereo in doubt; 1a -A) | 4.9 min
* CC(C)[C@H](NC(=O)[C@H](CC(=O)O)NC(=O)[C@@H]1CCCN1C(=O)[C@@H](N)CCCN=C(N)N)C(=O)C[C@H](Cc1ccccc1)C(=O)O (stereo in doubt; 1b-A) | 17 min
* CCCC[C@H](NC(=O)[C@@H](N)CCCN=C(N)N)C(=O)N[C@@H](CC(=O)O)C(=O)N[C@@H](C)C(=O)C[C@H](Cc1ccccc1)C(=O)O (stereo in doubt; 1g-A) | 20 min
* CCCC[C@H](NC(=O)[C@@H](N)CCCN=C(N)N)C(=O)N[C@@H](CC(=O)O)C(=O)N[C@H](C(=O)C[C@H](Cc1ccccc1)C(=O)O)C(C)C (stereo in doubt; 1c-A) | 21.1 min

###

Item-by-item account of Efficacy
System: CCRF-CEM
ASSAY_INFO: Efficacy was measured as the percentage binding to CEM cells.
Assay type: functional, Homo sapiens
REPORTED_ENDPOINT: Efficacy

- CCCC[C@H](NC(=O)[C@@H](N)CCCN=C(N)N)C(=O)N[C@@H](CC(=O)O)C(=O)N[C@H](C(=O)C[C@H](C(=O)O)C(C)C)C(C)C (stereo in doubt; 1h-A): 77
- CC(C)[C@H](NC(=O)[C@H](CC(=O)O)NC(=O)[C@H](CCCCN)NC(=O)[C@@H](N)CCCN=C(N)N)C(=O)C[C@H](Cc1ccccc1)C(=O)O (stereo in doubt; 1f-A): 54
- CC(C)[C@H](NC(=O)[C@H](CC(=O)O)NC(=O)[C@@H]1CCCN1C(=O)[C@@H](N)CCCN=C(N)N)C(=O)C[C@H](Cc1ccccc1)C(=O)O (stereo in doubt; 1b-A): 64

###

Item-by-item account of half-life
ASSAY_INFO: Half life by HPLC methods that permitted quantitative resolution of the decrease of TP-5 and the appearance of degradation products by absorbance in human heparinized serum
Format: ADME
REPORTED_ENDPOINT: half-life (min)

* CC(C)[C@H](NC(=O)[C@H](CC(=O)O)NC(=O)[C@@H]1CCCN1C(=O)[C@@H](N)CCCN=C(N)N)C(=O)C[C@H](Cc1ccccc1)C(=O)O (stereo in doubt; 1b-A) | 6
* CCCC[C@H](NC(=O)[C@@H](N)CCCN=C(N)N)C(=O)N[C@@H](CC(=O)O)C(=O)N[C@H](C(=O)C[C@H](Cc1ccccc1)C(=O)O)C(C)C (stereo in doubt; 1c-A) | 1.9
* CC(C)[C@H](NC(=O)[C@H](CC(=O)O)NC(=O)[C@H](CCCCN)NC(=O)[C@@H](N)CCCN=C(N)N)C(=O)C[C@H](Cc1ccccc1)C(=O)O (stereo in doubt; 1a -A) | 2

###

Item-by-item account of Efficacy
Tested on: CCRF-CEM
ASSAY_INFO: Efficacy was measured as the percentage binding to CEM cells.
Assay type: functional, Homo sapiens
REPORTED_ENDPOINT: Efficacy

- CCCC[C@H](NC(=O)[C@@H](N)CCCN=C(N)N)C(=O)N[C@@H](CC(=O)O)C(=O)N[C@H](C(=O)C[C@H](Cc1ccccc1)C(=O)O)C(C)C (stereo in doubt; 1c-B): 84
- CC(C)[C@H](NC(=O)[C@H](CC(=O)O)NC(=O)[C@H](C)NC(=O)[C@@H](N)CCCN=C(N)N)C(=O)C[C@H](Cc1ccccc1)C(=O)O: 67
- CC(C)C[C@H](NC(=O)[C@@H](N)CCCN=C(N)N)C(=O)N[C@@H](CC(=O)O)C(=O)N[C@H](C(=O)C[C@H](Cc1ccccc1)C(=O)O)C(C)C: 65
- CCCC[C@@H](C(=O)N[C@@H](CC(=O)O)C(=O)N[C@H](C(=O)C[C@H](Cc1ccccc1)C(=O)O)C(C)C)N(C)C(=O)[C@@H](N)CCCN=C(N)N: 37
- CC(C)[C@H](NC(=O)[C@H](CC(=O)O)NC(=O)[C@@H]1CCCN1C(=O)[C@@H](N)CCCN=C(N)N)C(=O)C[C@H](Cc1ccccc1)C(=O)O (stereo in doubt; 1b-B): 56
- CCCC[C@@H](C(=O)N[C@@H](CC(=O)O)C(=O)N[C@H](C(=O)C[C@H](C(=O)O)C(C)C)C(C)C)N(C)C(=O)[C@@H](N)CCCN=C(N)N: 37

###

System: CCRF-CEM
ASSAY_INFO: Efficacy was measured as the percentage binding to CEM cells.
Type: functional, Homo sapiens
Item-by-item account of Efficacy
REPORTED_ENDPOINT: Efficacy

• CCCC[C@H](NC(=O)[C@@H](N)CCCN=C(N)N)C(=O)N[C@@H](CC(=O)O)C(=O)N[C@@H](C(C)C)C(O)C[C@H](Cc1ccccc1)C(=O)O (stereo partly drawn) = 35
• CC(C)[C@H](NC(=O)[C@H](CC(=O)O)NC(=O)[C@H](CCCCN)NC(=O)[C@@H](N)CCCN=C(N)N)C(=O)C[C@H](Cc1ccccc1)C(=O)O (stereo in doubt; 1a-B) = 73
• CCCC[C@H](NC(=O)[C@@H](N)CCCN=C(N)N)C(=O)N[C@@H](CC(=O)O)C(=O)N[C@@H](C(C)C)C1CC(Cc2ccccc2)C(=O)O1 (stereo partly drawn) = 16

###

System: CCRF-CEM
ASSAY_INFO: Binding was measured using [3H]thymopentin was compared to the CEM cell binding assay.
Assay type: functional, Homo sapiens
Parameters: unit not given here
REPORTED_ENDPOINT: Binding

• CCCC[C@H](NC(=O)[C@@H](N)CCCN=C(N)N)C(=O)N[C@@H](CC(=O)O)C(=O)N[C@H](C(=O)C[C@H](Cc1ccccc1)C(=O)O)C(C)C (stereo in doubt; 1c-A) = 1254
• CCCC[C@H](NC(=O)[C@@H](N)CCCN=C(N)N)C(=O)N[C@@H](CC(=O)O)C(=O)N[C@H](C(=O)C[C@H](C(=O)O)C(C)C)C(C)C (stereo in doubt; 1h-B) = 1713
• CCCC[C@H](NC(=O)[C@@H](N)CCCN=C(N)N)C(=O)N[C@@H](CC(=O)O)C(=O)N[C@H](C(=O)C[C@H](Cc1ccccc1)C(=O)O)C(C)C (stereo in doubt; 1c-B) = 1453
• CC(C)[C@H](NC(=O)[C@H](CC(=O)O)NC(=O)[C@@H]1CCCN1C(=O)[C@@H](N)CCCN=C(N)N)C(=O)C[C@H](Cc1ccccc1)C(=O)O (stereo in doubt; 1b-A) = 1843
• CCCC[C@H](NC(=O)[C@@H](N)CCCN=C(N)N)C(=O)N[C@@H](CC(=O)O)C(=O)N[C@H](C(=O)C[C@H](C(=O)O)C(C)C)C(C)C (stereo in doubt; 1h-A) = 1600
• CCCC[C@@H](C(=O)N[C@@H](CC(=O)O)C(=O)N[C@H](C(=O)C[C@H](Cc1ccccc1)C(=O)O)C(C)C)N(C)C(=O)[C@@H](N)CCCN=C(N)N = 2356
• CC(C)[C@H](NC(=O)[C@H](CC(=O)O)NC(=O)[C@H](CCCCN)NC(=O)[C@@H](N)CCCN=C(N)N)C(=O)C[C@H](Cc1ccccc1)C(=O)O (stereo in doubt; 1a -A) = 1735
• CC(C)[C@H](NC(=O)[C@H](CC(=O)O)NC(=O)[C@H](CCCCN)NC(=O)[C@@H](N)CCCN=C(N)N)C(=O)C[C@H](Cc1ccccc1)C(=O)O (stereo in doubt; 1a-B) = 1673
• CCCC[C@H](NC(=O)[C@@H](N)CCCN=C(N)N)C(=O)N[C@@H](CC(=O)O)C(=O)N[C@@H](C(C)C)C1CC(Cc2ccccc2)C(=O)O1 (stereo partly specified) = 2771
• CCCC[C@H](NC(=O)[C@@H](N)CCCN=C(N)N)C(=O)N[C@@H](CC(=O)O)C(=O)N[C@@H](C)C(=O)C[C@H](Cc1ccccc1)C(=O)O (stereo in doubt; 1g-B) = 1715
• CC(C)[C@H](NC(=O)[C@H](CC(=O)O)NC(=O)[C@H](CCCCN)NC(=O)[C@@H](N)CCCN=C(N)N)C(=O)C[C@H](Cc1ccccc1)C(=O)O (stereo in doubt; 1f-A) = 2044

###

Test system: CCRF-CEM
ASSAY_INFO: Efficacy was measured as the percentage binding to CEM cells.
Format: functional, Homo sapiens
Item-by-item account of Efficacy
REPORTED_ENDPOINT: Efficacy

* CCCC[C@H](NC(=O)[C@@H](N)CCCN=C(N)N)C(=O)N[C@@H](CC(=O)O)C(=O)N[C@@H](C)C(=O)C[C@H](Cc1ccccc1)C(=O)O (stereo in doubt; 1g-B) | 71
* CC(C)[C@H](NC(=O)[C@H](CC(=O)O)NC(=O)[C@H](CCCCN)NC(=O)[C@@H](N)CCCN=C(N)N)C(=O)C[C@H](Cc1ccccc1)C(=O)O (stereo in doubt; 1a -A) | 70
* CCCC[C@H](NC(=O)[C@@H](N)CCCN=C(N)N)C(=O)N[C@@H](CC(=O)O)C(=O)N[C@H](C(=O)C[C@H](Cc1ccccc1)C(=O)O)C(C)C (stereo in doubt; 1c-A) | 95
* CCCC[C@H](NC(=O)[C@@H](N)CCCN=C(N)N)C(=O)N[C@@H](CC(=O)O)C(=O)N[C@H](C(=O)C[C@H](C(=O)O)C(C)C)C(C)C (stereo in doubt; 1h-B) | 71
* CCCC[C@H](NC(=O)[C@@H](N)CCCN=C(N)N)C(=O)N[C@@H](CC(=O)O)C(=O)N[C@@H](C)C(=O)C[C@H](Cc1ccccc1)C(=O)O (stereo in doubt; 1g-A) | 73
